- TARGET_ENTITY: GRK2 (S670A), flow cytometry and crystallography (bovine, UniProt P21146 1-689, S670A)
- Sequence (P21146 whole entry S670A): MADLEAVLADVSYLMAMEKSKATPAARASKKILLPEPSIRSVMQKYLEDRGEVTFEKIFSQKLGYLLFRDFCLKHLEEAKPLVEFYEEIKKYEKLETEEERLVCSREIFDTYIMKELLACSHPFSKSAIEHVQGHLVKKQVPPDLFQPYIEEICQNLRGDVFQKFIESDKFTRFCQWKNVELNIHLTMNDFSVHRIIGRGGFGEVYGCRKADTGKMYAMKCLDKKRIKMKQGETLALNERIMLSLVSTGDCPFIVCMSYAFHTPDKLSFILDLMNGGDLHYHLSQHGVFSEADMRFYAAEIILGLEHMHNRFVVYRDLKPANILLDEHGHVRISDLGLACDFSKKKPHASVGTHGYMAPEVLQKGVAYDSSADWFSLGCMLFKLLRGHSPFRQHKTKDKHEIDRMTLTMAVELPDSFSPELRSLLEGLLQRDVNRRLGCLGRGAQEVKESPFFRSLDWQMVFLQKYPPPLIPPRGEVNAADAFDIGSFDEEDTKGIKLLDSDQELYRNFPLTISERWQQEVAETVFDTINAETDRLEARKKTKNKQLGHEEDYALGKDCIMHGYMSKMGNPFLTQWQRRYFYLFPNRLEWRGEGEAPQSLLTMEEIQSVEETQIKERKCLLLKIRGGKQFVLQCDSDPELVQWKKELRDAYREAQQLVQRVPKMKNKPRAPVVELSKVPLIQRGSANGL
- ASSAY_METHOD_TEXT: flow cytometry bead binding
MEASURED_QUANTITY: Kd (nM)
Reply with just the number (in nM).

For GGCAGACCAUACGGGAGAGAAACUUGCC (ssRNA) [C13.28] the binder record lists Kd as 3.8
